System: NCI-H322M lung
Test: NCI-60 one-dose screen, 48 h
Settings: 10 µM unless noted
The panel holds about 83,000 compounds, 20% with a hit somewhere; the sample as a whole holds those more often. The source made the active and inactive calls. Rule for the calls: active = growth percent below 10; inactive = the rest.
// classify into active, inactive

Check out these entries, answers already filled in.
compound | className
COCCCNc1nc(NC(=O)c2cc(OC)cc(OC)c2)cc(-c2cccnc2)n1 | inactive
NC(=O)c1c(NC(=O)COC(=O)Cc2ccccc2F)sc2c1CCC2 | inactive
O=C(Nc1cccnc1)c1ccc2ccc3ccc(C(=O)Nc4cccnc4)nc3c2n1 | inactive
CCc1ccc(C2=C/C(=C/c3ccccc3)C(=O)N2CCc2ccc(S(N)(=O)=O)cc2)cc1 | inactive
COc1cc(-c2nc(SCCC(C)C)nc(Nc3ccc(S(N)(=O)=O)cc3)c2C#N)cc(OC)c1OC | inactive
CN(C)c1ccc(N=Nc2ccc3ccccc3c2)cc1 | inactive
Cc1ccc(-c2cc(-c3ccc(C)cc3)nc(NCCNc3ccnc4cc(Cl)ccc34)n2)cc1 | inactive
CCCCOC(=O)c1cccc([N+](=O)[O-])c1 | inactive
CC1(C)C(=NO)C(C)(C)C1=NO | inactive
COc1ccc(/C=C(/C2=NCCN2)n2ccc3ccccc32)cc1 | inactive

Enquiry: So what was the verdict on O=C(OCc1ccc2c(Cl)cc(Cl)c(O)c2n1)N1CCNCC1 in this test?
Return: inactive

Enquiry: So what was the verdict on COc1ccc(-c2cc(-c3ccc(Cl)cc3)nc(SCCCCCCC(=O)NO)n2)cc1 in this test?
Return: inactive

Enquiry: So what was the verdict on NC(=S)Cc1ccccc1 in this test?
Return: inactive

Enquiry: So what was the verdict on CN(C)CCOc1ccc(/C(=C(/CCCl)c2ccccc2)c2ccccc2)cc1 in this test?
Return: inactive

Enquiry: So what was the verdict on C[n+]1c(-c2ccccc2)c2cc(N)ccc2c2ccccc21 in this test?
Return: inactive

Enquiry: So what was the verdict on Cc1ccc(NCCN2CCCCC2)c2c(=O)c3ccccc3sc12 in this test?
Return: inactive

Enquiry: So what was the verdict on COc1cc(NCc2ccccc2O)c2ncccc2c1 in this test?
Return: inactive

Enquiry: So what was the verdict on CC1=CC[C@@H]2C(C)(C)C(=O)CC[C@@]2(C)[C@@H]1COc1ccc2ccc(=O)oc2c1 in this test?
Return: inactive

###

Test system: SR leukemia
Assay: NCI-60 one-dose screen, 48 h
Details: 10 µM unless noted
Compounds without any hit were thinned out: in the full panel of roughly 83,000, 20% have a hit. Activity calls are given as the source filed them. Rule for the calls: active = growth percent below 10; inactive = the rest.
// classify into active, inactive

Check out these entries, answers already filled in.
compound | className
CCOC(=O)c1nc2c3ccccc3ccn2c1C(=O)OC | inactive
C=C(C)[C@@H]1CC[C@]2(C(=O)NCCNCCNCCN)CC[C@]3(C)[C@H](CC[C@@H]4[C@@]5(C)CCC(=O)C(C)(C)[C@@H]5CC[C@]43C)[C@@H]12 | active
C#C[C@]1(O)CC[C@H]2[C@@H]3CC=C4c5nc(Nc6ccc(OC)cc6OC)sc5CC[C@]4(C)[C@H]3CC[C@@]21C | active
COc1ccc(-c2cc(-c3ccc(OC)c(OC)c3)nc(SCCCCCC(=O)NO)n2)cc1 | active
CC(C)[C@H]1CCC2=C3CC[C@]45OC(=O)[C@@]6(CCC(C)(C)C[C@H]64)CC[C@@]5(C)[C@]3(C)CC[C@@]21C | inactive

Enquiry: So what was the verdict on C#CCC(C(=O)OCC)C(=O)OCC in this test?
Return: inactive

Enquiry: So what was the verdict on C#CCNC(=O)CC[C@@H](C)[C@H]1CC[C@H]2[C@@H]3CC[C@@H]4CC(=O)CC[C@]4(C)[C@H]3CC[C@]12C in this test?
Return: inactive

Enquiry: So what was the verdict on COc1ccc(C2CC(c3ccc4ccccc4c3)=NN2c2nc(O)c(C3=c4cc(OC)ccc4=NC3=O)s2)cc1 (stereo not given) in this test?
Return: active

Enquiry: So what was the verdict on Cc1cccc([N+](=O)[O-])c1I in this test?
Return: inactive

Enquiry: So what was the verdict on CC1(C)CC[C@]23CC[C@]4(C)[C@H](CC[C@@H]5[C@@]6(C)C/C(=C/c7ccncc7)C(=O)C(C)(C)[C@@H]6CC[C@]54C)[C@H]2[C@H]1OC3=O in this test?
Return: inactive

Enquiry: So what was the verdict on C=C1C(=O)O[C@H]2[C@H]1CC/C(COC(=O)NCc1ccc(Cn3c(=O)sn(-c4ccc(Cl)cc4)c3=O)cc1)=C\CC[C@@]1(C)O[C@@H]21 in this test?
Return: inactive

Enquiry: So what was the verdict on O=C(Nc1ccc(Oc2ccc(F)cc2)c(Cl)c1)c1cccnn1 in this test?
Return: inactive

Enquiry: So what was the verdict on CCOC(=O)/C(C#N)=C(\C)CCc1ccccc1 in this test?
Return: inactive

Enquiry: So what was the verdict on O=[N+]([O-])c1cc([N+](=O)[O-])c(C(F)(F)F)cc1NN=C(c1ccc(O)cc1)c1ccc(O)cc1 in this test?
Return: inactive

Enquiry: So what was the verdict on CCOC(=O)c1nn(C2CCCCO2)c2ccc(NC(=O)CN3CCOCC3)cc12 (stereo not given) in this test?
Return: inactive

###

Test system: NCI-H522 lung
Assay: NCI-60 one-dose screen, 48 h (100 = growth as untreated, 0 = no growth, -100 = all killed)
Details: 10 µM unless noted
This is part of a sample that, as a whole, favours compounds with a hit. Of some 83,000 tested, about 20% had one in any assay. Activity calls are given as the source filed them. Rule for the calls: active = growth percent below 10; inactive = the rest.
propertyName: growth

Below: 5 molecules and their reported growth.
molecule | growth
CC1=CCc2ccccc21 | 90.5% (inactive)
CC(C)CCSc1nc(N)nc2nc[nH]c12 | 79.9% (inactive)
O=C(Nc1ccc(F)cc1)c1ccccc1 | 101% (inactive)
COc1ccc(OC)c(NC=O)c1 | 103% (inactive)
O=c1cc(-c2ccccc2)oc2c(O)c(O)ccc12 | 43.6% (inactive)

Enquiry: Return the recorded growth value; entry: CCCCC(CCCCCC(CCCC)C1NC(C)Cc2cc(OC)c(OC)cc21)C1NC(C)Cc2cc(OC)c(OC)cc21 (stereo not drawn)
Return: -87.7% (active)

Enquiry: Return the recorded growth value; entry: C=C(CN=[N+]=[N-])[C@@H]1CC[C@]2(C)[C@H](CC[C@@H]3[C@H]4[C@H]5OC(=O)[C@@]4(CCC5(C)C)CC[C@]32C)[C@@]1(C)CCC#N
Return: 70.2% [100 µM] (inactive)

Enquiry: Return the recorded growth value; entry: COC(=O)[C@H](CC(C)C)NC(=O)NC(=O)NC(=O)CI
Return: -79.2% (active)

Enquiry: Return the recorded growth value; entry: COc1cc(Cl)cc(-c2nn(C(=O)NS(=O)(=O)c3ccccc3)cc2-c2ccncc2)c1
Return: 82.5% (inactive)

Enquiry: Return the recorded growth value; entry: Cc1cc(C)c(S(=O)(=O)/N=c2/n(-c3ccccc3)nc3n2CCN3C2=NCCN2)c(C)c1
Return: 103% (inactive)

Enquiry: Return the recorded growth value; entry: O=C(CSc1nccc(Nc2ccc(S(=O)(=O)Nc3ccccn3)cc2)n1)c1ccc(Cl)cc1
Return: 75.4% (inactive)

Enquiry: Return the recorded growth value; entry: CCN1c2ccccc2C(Cl)(c2ccc(N(C)C)cc2)c2ccccc21
Return: 64.2% (inactive)

Enquiry: Return the recorded growth value; entry: O=C1CN(Cc2ccc(C(=O)NO)cc2)C(=O)[C@@H](Cc2ccccc2)N1
Return: 98.2% (inactive)

###

Tested on: CAKI-1 renal
Assay: NCI-60 one-dose screen, 48 h (100 = growth as untreated, 0 = no growth, -100 = all killed)
Details: 10 µM unless noted
This is part of a sample that, as a whole, favours compounds with a hit. Of some 83,000 tested, about 20% had one in any assay.
propertyName: growth (%)
Give a bare numeral; the unit % is implied.

Below: 4 compounds and their reported growth.
compound | growth / %
Cc1cc(-c2ccc(N=Nc3c(S(=O)(=O)O)cc4cc(S(=O)(=O)O)cc(N)c4c3O)c(C)c2)ccc1N=Nc1cc(S(=O)(=O)O)c2ccccc2c1O | 78.9
O=C1Cc2c(sc3c(F)cccc23)C(c2ccccc2[N+](=O)[O-])N1 (stereo not given) | 75.1
CCN(CC)c1ccc2cc(NC(=O)OCCNC(=O)CCNC(=O)[C@H](CC(C)C)NC(=O)C(C)(C)NC(=O)C(C)(C)NC(=O)[C@H](CC(C)C)NC(=O)CCNC(=O)C(C)(C)NC(=O)[C@H](CC(C)C)NC(=O)CCNC(=O)[C@@](C)(CC)NC(=O)[C@H](C)NC(=O)CCNC(=O)C(C)(C)NC(=O)[C@H](C)NC(=O)[C@@H]3CCCN3C(=O)[C@@](C)(CC)NC(=O)[C@H](Cc3ccccc3)NC(=O)C3CCCN3C(=O)C(C)(C)NC(=O)C3CCCN3C(=O)C(C)(C)NC(C)=O)c(=O)oc2c1 (stereo not given in full) | -92.4
Cc1cc(SC#N)ncn1 | 98.9

Could you now consider this next compound?
Enquiry: Return the recorded growth value; entry: COCc1nc2ccccc2[nH]1
Return: 93.4
